assaySystem: Gal(b1-4)GlcNAc(b1-2)[Gal(b1-4)GlcNAc(b1-6)]Man(a1-6)[Gal(b1-4)GlcNAc(b1-2)Man(a1-3)]Man(b1-4)GlcNAc(b1-4)GlcNAc
runDescription: glycan array binding signal (z-score within array); higher = stronger binding
particulars: glycan notation: IUPAC condensed, linker removed
The sample as a whole holds a higher share of the strongest signals than the screen did.
valueType: glycan array binding signal (z-score)

[[record]]
binder = "AT5G01260(PC)(40) (Arabidopsis thaliana), Q9LFB0 (protein) MIGIGRTLTSSSPSKIILEDLPPGIYRYGTEIFTSVPRKTFHHIKFLRLDSAQSSRILKPVPLRSSSIKDSQVNVEDEEIEASNKTVRVRFQLRKECVFGEHFFIVGDDPVFGGLWDPETALPLNWSDGNVWTVDLDLPVGRLVEFKLLLKAQTGEILWQPGPNRALETWETNKTIRICEDWDNADLQMMIEEDFVPYTNISSIGSEDEDEVLGSVQQNSSVVAVENAGYVSDESAQNSSFSIQSEKTMEPSNGALTAREVIKEAMFTEEESPVLVPGLIPLSDLDNEQVEVINEGKAETFPEVDKKQEPKAERNKKAKVKAISLFEKSEQEAVKSVEQRQYNAVEEEQQRLETEPLGTPDVLFENDIQWGRRTLYKLLSNFRLF"
valuetype = "glycan array binding signal (z-score)"
resultvalue = 0.037


Read off the recorded glycan array binding signal (z-score) for GS13455A-bfa-343-25-343 (Bacteroides fragilis) (protein) KDEIQIVDQDTSWQMDNKYIEEDIREQLGIDPFTDLVYLGYYGNPYTQLEAINDLVNTTLVGKNELSFKVKVTKPYKEDIKVNLMKEDKLVTDFPEMAEGIPLFPSENCTFEGGVLKAGELETTVKLTLKDVEKLNNLSGYVMAIKLTMEGSHEHLAIARTRSSYFVKLNLSIRLDNIDSSNKKIEGKGFNKEISFKSDIRPDKLGSLNDGNFTANNWYTSNANNYLTIILPEKQSLKGFRLDTNTSPSGSYMLKSCRVMVETPDGNWVNHGVFDRKSMDGIAYISFKKPVECTKVRFENMMAFNGRFSVDVNEVTAFR
-0.11
